Cited source for all entries: the supplement of paper PMC7595190

# System: CMK
# experimentalDetails: CellTox Green cytotoxicity fluorescence relative to DMSO vehicle (fold of vehicle RFU); higher = more cell death (loss of membrane integrity), active = 2 or more
# reportedConditions: 1 µM; 72 h
Where CellTox Green cytotoxicity fluorescence equals or exceeds 1, the correct label is 1; where it does not, the label is 0.

# example entries with known answers
| molecule | target | categoryLabel |
| --- | --- | --- |
| Nc1nc(F)nc2c1ncn2[C@@H]1O[C@H](CO)[C@@H](O)[C@@H]1O | CMK | 0 |
| CC[C@@]1(O)C(=O)OCc2c1cc1n(c2=O)Cc2cc3cc(O)ccc3nc2-1 [(S)-10-Hydroxycamptothecin] | CMK | 0 |
| COCC[n+]1c2c(n(Cc3cnccn3)c1C)C(=O)c1ccccc1C2=O [Sepantronium Bromide] | CMK | 1 |

Q: Form field: CellTox Green cytotoxicity fluorescence at least 1? Entry: "C/C(=N\NC(=O)c1cccc(S(=O)(=O)N2CCOCC2)c1)c1cc(Cl)ccc1O"
Ans: 0

* * *

Assignment: determine reported CellTox Green cytotoxicity fluorescence for the given compounds.
# System: CMK
# experimentalDetails: CellTox Green cytotoxicity fluorescence relative to DMSO vehicle (fold of vehicle RFU); higher = more cell death (loss of membrane integrity), active = 2 or more
# reportedConditions: 0.1 µM; 72 h
One number for each entry.

Please review the following examples before continuing.
| compound | CellTox Green cytotoxicity fluorescence |
| --- | --- |
| CN(C)CCCCC(=O)Nc1ccc(NC(=S)NC(=O)c2ccc(C(C)(C)C)cc2)cc1 | 0.973 |
| CCOc1cc(C(C)(C)C)ccc1C1=N[C@@](C)(c2ccc(Cl)cc2)[C@@](C)(c2ccc(Cl)cc2)N1C(=O)N1CCN(CCCS(C)(=O)=O)CC1 | 1 |
| Cc1c(C(=O)Nc2ccc(Oc3ccnc4[nH]cc(-c5ccccc5)c34)c(F)c2)c(=O)n(-c2ccc(F)cc2)n1C | 1.01 |

Let's switch to this compound now.
Q: What does the record list as CellTox Green cytotoxicity fluorescence for Cc1nc(Nc2ncc(C(=O)Nc3c(C)cccc3Cl)s2)cc(N2CCN(CCO)CC2)n1 [Dasatinib Monohydrate] ?
Ans: 0.987

* * *

# Test system: CMK
# experimentalDetails: CellTox Green cytotoxicity fluorescence relative to DMSO vehicle (fold of vehicle RFU); higher = more cell death (loss of membrane integrity), active = 2 or more
# reportedConditions: 1 µM; 48 h
endpointName: CellTox Green cytotoxicity fluorescence
Answers are plain numbers.

Below, each entry is followed by its recorded CellTox Green cytotoxicity fluorescence result.
| molecule | CellTox Green cytotoxicity fluorescence |
| --- | --- |
| C[C@H]1Oc2cc(cnc2N)-c2c(nn(C)c2C#N)CN(C)C(=O)c2ccc(F)cc21 | 1.05 |
| CC(=O)O/N=C1/C(c2c(O)[nH]c3cc(Br)ccc23)=Nc2ccccc21 | 0.945 |
| C=CCc1cccc(/C=N/NC(=O)CN2CCN(Cc3ccccc3)CC2)c1O | 0.937 |
| CN[C@@H](C)C(=O)N[C@H](C(=O)N1CCC[C@H]1C(=O)Nc1snnc1-c1ccccc1)C1CCCCC1 | 1.02 |
| Cc1nn(C)c(COc2ccc(N3CCN(S(=O)(=O)N(C)C)CC3)cc2)c1-c1cccc2c(CCCOc3cccc4ccccc34)c(C(=O)O)n(CCN3CCOCC3)c12 | 1.01 |
| COC(=O)[C@H](CCSC)NC(=O)c1ccc(NC[C@@H](N)CS)cc1-c1ccccc1 | 0.978 |
| Nc1nc(F)nc2c1ncn2[C@@H]1O[C@H](CO)[C@@H](O)[C@@H]1O | 0.961 |
| CCCCCCCCCCCC1=C(O)C(=O)C=C(O)C1=O | 1.04 |

Record CellTox Green cytotoxicity fluorescence for all entries; do not skip any.
1. C=CC(=O)N1CC(=Cc2ccc([N+](=O)[O-])cc2)C(=O)C(=Cc2ccc([N+](=O)[O-])cc2)C1
2. CNC(=O)c1ccccc1Nc1cc(Nc2ccc(N3CCOCC3)cc2OC)ncc1C(F)(F)F
3. CC[C@H](NC(=O)[C@H](C)NC)C(=O)N1C[C@@H](O)C[C@H]1Cc1c(-c2[nH]c3cc(F)ccc3c2C[C@@H]2C[C@H](O)CN2C(=O)[C@H](CC)NC(=O)[C@H](C)NC)[nH]c2cc(F)ccc12
4. O=C1C(=O)N(Cc2ccc(Cl)c(Cl)c2)c2ccccc21
5. C=CC(=O)N1CCN(C(=O)CNc2cc(I)c(Cl)cc2O)CC1 [K-Ras(G12C) inhibitor 12]
6. COc1cc(C(=O)N2CCC(N3CCN(C)CC3)CC2)ccc1Nc1ncc2c(n1)N(C)c1ccccc1C(=O)N2C
7. FC(F)(F)c1ccc(CNc2ccc(Cc3c[nH]c4ncc(Cl)cc34)cn2)cn1
8. CN1CCN(Cc2ccc(Nc3ncc(Cl)c(Nc4ccccc4S(=O)(=O)N(C)C)n3)cc2)CC1

Ans:
3.36
1.02
1.03
1.01
1
1.89
0.989
2.42
